- Test system: P. falciparum (NF54) stage V gametocytes
- Parameters: Mature stage V gametocyte viability, MitoTracker Red CMXRos high-content imaging
- REPORTED_CONDITIONS: primary screen, n=2, fraction of DMSO control; 72 h, 2 µM; inhibitor
Over roughly 68,000 compounds, “% viability” has its median near 1.1; the lowest 2% begin near 0.96. The sample as a whole holds a higher share of the lowest values than the screen did. The numbers are fractions of the control, whatever unit the source prints.
PARAMETER: % viability (%)
Your answer should be a plain number; it is taken to be in %.

Take a look at these entries with their results.
COc1ccc(F)cc1-c1nc2c(C3CC3)[nH]n(C)c-2n1; 1.074
CCc1cc(=O)n2nc(C3CCCN3C(=O)c3ccccn3)cc2[nH]1 (stereo not shown); 1.278
CC(NC(=O)CCC1=NC(=C2N=CN=N2)NO1)c1ccc(F)cc1F (stereo not shown); 1.218

Please fill in: % viability reported for Cc1ccc(CN2CCc3c([nH]c4cc(C5CC5)nn4c3=O)C2)s1 = 1.123

Summary for this molecule, COc1cc2c(cc1-c1nc3c[nH]n(C)c-3n1)OCO2 : % viability is 1.141

The value of % viability measured for the molecule CCC(CO)N(Cc1cccnc1)C(=O)c1ccc(C(F)(F)F)nc1O (stereo not shown) turned out to be 1.193

Briefly, % viability measured for CCn1[nH]cc2nc(-c3cc4c(cc3OC)OCO4)nc1-2 : 1.126

Recorded result, Cc1ncc(CN2CCc3[nH]c4cc(C(C)(C)C)nn4c(=O)c3C2)n1C , % viability: 1.122
